- Tested on: A549 NSCLC
- Assay Overview: NCI tumour cell line growth inhibition, 48 h
// values below are reported TGI
Quantity Measured: TGI

[[record]]
molecule = "NS(=O)(=O)c1ccc(NC(=O)Nc2cccc3ccccc23)cc1"
result = "> 100 µM"

[[record]]
molecule = "CN1C(=O)CC(CC(=O)C2CCCCC2=O)CC1=O (configuration not stated)"
result = "> 100 µM"

[[record]]
molecule = "Cn1c(SCc2ccc([N+](=O)[O-])cc2)nnc1C12CC3CC(CC(C3)C1)C2"
result = "> 10 µM"

[[record]]
molecule = "CC(=O)OCc1cc[c]([Hg][Cl])o1"
result = "43.2 µM"

[[record]]
molecule = "CC(=O)Nc1ccc2c(c1)[nH]c(=O)c1cc(NC(C)=O)ccc12"
result = "> 100 µM"

[[record]]
molecule = "O=C1/C(=C/c2ccc(C(=O)O)cc2)CNC/C1=C\\c1ccc(C(=O)O)cc1"
result = "> 100 µM"

[[record]]
molecule = "O=C(NNC(=O)c1ccccc1O)c1cccs1"
result = "> 100 µM"

[[record]]
molecule = "C#CCn1c(=O)c2cc(OC)c(OC)cc2n(CC#C)c1=O"
result = "> 10 µM"

[[record]]
molecule = "Cn1c(=Nc2ccccc2[N+](=O)[O-])sc2ccccc21"
result = "> 100 µM"

[[record]]
molecule = "C/C(COc1ccccc1)=N\\NC(N)=S"
result = "> 100 µM"

[[record]]
molecule = "Cc1cc(NCCCCCCCCNc2cc(C)nc3cc(N(C)C)ccc23)c2ccc(N(C)C)cc2n1"
result = "21.8 µM"

[[record]]
molecule = "CC(=O)O[C@H]1C(=O)[C@@]2(C)C(C(OC(=O)c3ccccc3)[C@]3(O)CC(OC(=O)C(O)C(NC(=O)c4cccc(Cl)c4)c4ccccc4)C(C)=C1C3(C)C)[C@]1(OC(C)=O)CO[C@@H]1C[C@@H]2O (some centres not stated)"
result = "> 10 µM"


Numbers sourced from PubChem BioAssay (NCI).
